Sourced from ChEMBL document CHEMBL4270546

tested on: A549; assay: Antiproliferative activity against human A549 cells after 48 hrs by MTT assay; format: functional, cell-based; details: A549, 48 h
pIC50: −log10 of the molar value.
Reported metric: pIC50

Example cases with answers are listed next.
Molecule	Reported metric	Measured number
CC[C@H](C)[C@H](NC(=O)OCc1ccccc1)C(=O)O[C@@H](CC(C)C)C(=O)N[C@@H](CC(C)C)C(=O)N[C@@H](C)/C=C/C(=O)N1C(=O)C=C(OC)[C@@H]1Cc1ccccc1	pIC50	4.38
CC[C@H](C)[C@H](NC(=O)Nc1ccc(OC)cc1)C(=O)N[C@@H](CC(C)C)C(=O)N[C@@H](CC(C)C)C(=O)N[C@@H](C)/C=C/C(=O)N1C(=O)C=C(OC)[C@@H]1C(C)C	pIC50	4.68
CC[C@H](C)[C@H](NC(=O)OCc1ccccc1)C(=O)N[C@@H](CC(C)C)C(=O)N[C@@H](CC(C)C)C(=O)N[C@@H](C)/C=C/C(=O)N1C(=O)C=C(OC)[C@@H]1C	pIC50	4.82
CC[C@H](C)[C@@H](C(=O)N[C@@H](CC(C)C)C(=O)N[C@@H](CC(C)C)C(=O)N[C@@H](C)/C=C/C(=O)N1C(=O)C=C(OC)[C@@H]1C)N(C)C	pIC50	4.30

a: CC[C@H](C)[C@H](NC(=O)OCc1ccccc1)C(=O)O[C@@H](CC(C)C)C(=O)N[C@@H](CC(C)C)C(=O)N[C@@H](C)/C=C/C(=O)N1C(=O)C=C(OC)[C@@H]1C
b: CC[C@H](C)[C@H](NC(=O)OCc1ccccc1)C(=O)N[C@@H](CC(C)C)C(=O)N[C@@H](CC(C)C)C(=O)N[C@@H](C)/C=C/C(=O)N1C(=O)C=C(OC)[C@@H]1C(C)C
[ask] Endpoint returns whichever of a and b has the numerically higher pIC50. Give the label under which the chosen entry appears.
[reply] b

* * *

system: A-375; assay: Antiproliferative activity against human A375 cells after 48 hrs by MTT assay; assay type: functional, cell-based; details: A-375, 48 h
Reported metric: IC50 (µM)

// solved cases for IC50 follow
Compound	IC50 (µM)
CC[C@H](C)[C@@H](C(=O)N[C@@H](CC(C)C)C(=O)N[C@@H](CC(C)C)C(=O)N[C@@H](C)/C=C/C(=O)N1C(=O)C=C(OC)[C@@H]1C)N(C)C	11.2
CC[C@H](C)[C@@H](C(=O)O[C@@H](CC(C)C)C(=O)N[C@@H](CC(C)C)C(=O)N[C@@H](C)/C=C/C(=O)N1C(=O)C=C(OC)[C@@H]1C)N(C)C [GALLINAMIDE A]	45.6

I: COC1=CC(=O)N(C(=O)/C=C/[C@H](C)NC(=O)[C@H](CC(C)C)N(C)C)[C@H]1C(C)C
II: CC[C@H](C)[C@H](NC(=O)OCc1ccccc1)C(=O)O[C@@H](CC(C)C)C(=O)N[C@@H](CC(C)C)C(=O)N[C@@H](C)/C=C/C(=O)N1C(=O)C=C(OC)[C@@H]1C(C)C
[ask] Given the listed items, does I or II have the lesser reported IC50? Output the label that corresponds to your choice.
[reply] I
(I: 7.56 µM, II: 13.7 µM)

* * *

tested on: A549; experiment: Antiproliferative activity against human A549 cells after 48 hrs by MTT assay; type: functional, cell-based; conditions: A549, 48 h
Reported metric: IC50 (µM)

Smiles structure	IC50 / µM
C#CCCC(=O)N[C@H](C(=O)N[C@@H](CC(C)C)C(=O)N[C@@H](CC(C)C)C(=O)N[C@@H](C)/C=C/C(=O)N1C(=O)C=C(OC)[C@@H]1C(C)C)[C@@H](C)CC	36.2
COC1=CC(=O)N(C(=O)/C=C/[C@H](C)NC(=O)[C@H](CC(C)C)N(C)C)[C@H]1C	30

a: CC[C@H](C)[C@H](NC(=O)OCc1ccccc1)C(=O)O[C@@H](CC(C)C)C(=O)N[C@@H](CC(C)C)C(=O)N[C@@H](C)/C=C/C(=O)N1C(=O)C=C(OC)[C@@H]1C(C)C
b: CC[C@H](C)[C@H](NC(=O)Cc1cccc(C(F)(F)F)c1)C(=O)N[C@@H](CC(C)C)C(=O)N[C@@H](CC(C)C)C(=O)N[C@@H](C)/C=C/C(=O)N1C(=O)C=C(OC)[C@@H]1C(C)C
c: CC[C@H](C)[C@@H](C(=O)N[C@@H](CC(C)C)C(=O)N[C@@H](CC(C)C)C(=O)N[C@@H](C)/C=C/C(=O)N1C(=O)C=C(OC)[C@@H]1C(C)C)N(C)C
[ask] Output the entries ranked by IC50 from maximum down to minimum. Rank them, then answer with their labels in that order.
[reply] c, a, b

* * *

test system: A-375; assay: Antiproliferative activity against human A375 cells after 48 hrs by MTT assay; format: functional, cell-based; settings: A-375, 48 h
pIC50: −log10 of the molar value.
Reported metric: pIC50

Here is how some compounds turned out for pIC50.
Smiles structure	pIC50
COC1=CC(=O)N(C(=O)/C=C/[C@H](C)NC(=O)[C@H](CC(C)C)N(C)C)[C@H]1C	4.94
CC[C@H](C)[C@H](NC(=O)Nc1ccc(OC)cc1)C(=O)N[C@@H](CC(C)C)C(=O)N[C@@H](CC(C)C)C(=O)N[C@@H](C)/C=C/C(=O)N1C(=O)C=C(OC)[C@@H]1C(C)C	4.35
CC[C@H](C)[C@H](NC(=O)OCc1ccccc1)C(=O)O[C@@H](CC(C)C)C(=O)N[C@@H](CC(C)C)C(=O)N[C@@H](C)/C=C/C(=O)N1C(=O)C=C(OC)[C@@H]1C	5.26

P: CC[C@H](C)[C@H](NC(=O)OCc1ccccc1)C(=O)N[C@@H](CC(C)C)C(=O)N[C@@H](CC(C)C)C(=O)N[C@@H](C)/C=C/C(=O)N1C(=O)C=C(OC)[C@@H]1C(C)C
Q: C#CCCC(=O)N[C@H](C(=O)N[C@@H](CC(C)C)C(=O)N[C@@H](CC(C)C)C(=O)N[C@@H](C)/C=C/C(=O)N1C(=O)C=C(OC)[C@@H]1C(C)C)[C@@H](C)CC
[ask] Which has the smaller recorded pIC50, P or Q ? // return label of chosen record
[reply] Q
(Q: 5.00, P: 6.10)

* * *

Overview of recorded IC50 for various molecules
system: A549; assay: Antiproliferative activity against human A549 cells after 48 hrs by MTT assay; type: functional, cell-based; details: A549, 48 h

Molecule	Result
COC1=CC(=O)N(C(=O)/C=C/[C@H](C)NC(=O)[C@H](CC(C)C)N(C)C)[C@@H]1Cc1ccccc1	> 100 µM
CC[C@H](C)[C@H](NC(=O)OCc1ccccc1)C(=O)N[C@@H](CC(C)C)C(=O)N[C@@H](CC(C)C)C(=O)N[C@@H](C)/C=C/C(=O)N1C(=O)C=C(OC)[C@@H]1c1c[nH]c2ccccc12	> 100 µM
CC[C@H](C)[C@@H](C(=O)O[C@@H](CC(C)C)C(=O)N[C@@H](CC(C)C)C(=O)N[C@@H](C)/C=C/C(=O)N1CCOCC1)N(C)C	> 100 µM

// sample COC1=CC(=O)N(C(=O)/C=C/[C@H](C)NC(=O)[C@H](CC(C)C)N(C)C)[C@H]1C(C)C , its IC50 was > 100 µM

response.value for CC[C@H](C)[C@@H](C(=O)O[C@@H](CC(C)C)C(=O)N[C@@H](CC(C)C)C(=O)N[C@@H](C)/C=C/C(=O)N1C(=O)C=C(OC)[C@@H]1C)N(C)C [GALLINAMIDE A] (field: IC50) = 40.4 µM

Record summary for CC[C@H](C)[C@@H](C(=O)O[C@@H](CC(C)C)C(=O)N[C@@H](CC(C)C)C(=O)N[C@@H](C)/C=C/C(=O)N(CC)CC)N(C)C : reported IC50 = > 100 µM
